All values here come from patent US8697739B2.

target: human acetyl-CoA carboxylase 2 (ACC2) (Homo sapiens, UniProt O00763); construct: The cDNA encoding amino acids 144 to 2458 of human acetyl-CoA carboxylase 2; made in house; host or cells: Sf9 insect cells (baculovirus, pFastBac1); assay: Acetyl-CoA carboxylase enzyme assay (malonyl-CoA formation by LC/MS/MS); type: biochemical; conditions: recombinant human ACC2 (aa 144-2458); read-out: IC50 ACC2
Sequence (O00763 144-2458): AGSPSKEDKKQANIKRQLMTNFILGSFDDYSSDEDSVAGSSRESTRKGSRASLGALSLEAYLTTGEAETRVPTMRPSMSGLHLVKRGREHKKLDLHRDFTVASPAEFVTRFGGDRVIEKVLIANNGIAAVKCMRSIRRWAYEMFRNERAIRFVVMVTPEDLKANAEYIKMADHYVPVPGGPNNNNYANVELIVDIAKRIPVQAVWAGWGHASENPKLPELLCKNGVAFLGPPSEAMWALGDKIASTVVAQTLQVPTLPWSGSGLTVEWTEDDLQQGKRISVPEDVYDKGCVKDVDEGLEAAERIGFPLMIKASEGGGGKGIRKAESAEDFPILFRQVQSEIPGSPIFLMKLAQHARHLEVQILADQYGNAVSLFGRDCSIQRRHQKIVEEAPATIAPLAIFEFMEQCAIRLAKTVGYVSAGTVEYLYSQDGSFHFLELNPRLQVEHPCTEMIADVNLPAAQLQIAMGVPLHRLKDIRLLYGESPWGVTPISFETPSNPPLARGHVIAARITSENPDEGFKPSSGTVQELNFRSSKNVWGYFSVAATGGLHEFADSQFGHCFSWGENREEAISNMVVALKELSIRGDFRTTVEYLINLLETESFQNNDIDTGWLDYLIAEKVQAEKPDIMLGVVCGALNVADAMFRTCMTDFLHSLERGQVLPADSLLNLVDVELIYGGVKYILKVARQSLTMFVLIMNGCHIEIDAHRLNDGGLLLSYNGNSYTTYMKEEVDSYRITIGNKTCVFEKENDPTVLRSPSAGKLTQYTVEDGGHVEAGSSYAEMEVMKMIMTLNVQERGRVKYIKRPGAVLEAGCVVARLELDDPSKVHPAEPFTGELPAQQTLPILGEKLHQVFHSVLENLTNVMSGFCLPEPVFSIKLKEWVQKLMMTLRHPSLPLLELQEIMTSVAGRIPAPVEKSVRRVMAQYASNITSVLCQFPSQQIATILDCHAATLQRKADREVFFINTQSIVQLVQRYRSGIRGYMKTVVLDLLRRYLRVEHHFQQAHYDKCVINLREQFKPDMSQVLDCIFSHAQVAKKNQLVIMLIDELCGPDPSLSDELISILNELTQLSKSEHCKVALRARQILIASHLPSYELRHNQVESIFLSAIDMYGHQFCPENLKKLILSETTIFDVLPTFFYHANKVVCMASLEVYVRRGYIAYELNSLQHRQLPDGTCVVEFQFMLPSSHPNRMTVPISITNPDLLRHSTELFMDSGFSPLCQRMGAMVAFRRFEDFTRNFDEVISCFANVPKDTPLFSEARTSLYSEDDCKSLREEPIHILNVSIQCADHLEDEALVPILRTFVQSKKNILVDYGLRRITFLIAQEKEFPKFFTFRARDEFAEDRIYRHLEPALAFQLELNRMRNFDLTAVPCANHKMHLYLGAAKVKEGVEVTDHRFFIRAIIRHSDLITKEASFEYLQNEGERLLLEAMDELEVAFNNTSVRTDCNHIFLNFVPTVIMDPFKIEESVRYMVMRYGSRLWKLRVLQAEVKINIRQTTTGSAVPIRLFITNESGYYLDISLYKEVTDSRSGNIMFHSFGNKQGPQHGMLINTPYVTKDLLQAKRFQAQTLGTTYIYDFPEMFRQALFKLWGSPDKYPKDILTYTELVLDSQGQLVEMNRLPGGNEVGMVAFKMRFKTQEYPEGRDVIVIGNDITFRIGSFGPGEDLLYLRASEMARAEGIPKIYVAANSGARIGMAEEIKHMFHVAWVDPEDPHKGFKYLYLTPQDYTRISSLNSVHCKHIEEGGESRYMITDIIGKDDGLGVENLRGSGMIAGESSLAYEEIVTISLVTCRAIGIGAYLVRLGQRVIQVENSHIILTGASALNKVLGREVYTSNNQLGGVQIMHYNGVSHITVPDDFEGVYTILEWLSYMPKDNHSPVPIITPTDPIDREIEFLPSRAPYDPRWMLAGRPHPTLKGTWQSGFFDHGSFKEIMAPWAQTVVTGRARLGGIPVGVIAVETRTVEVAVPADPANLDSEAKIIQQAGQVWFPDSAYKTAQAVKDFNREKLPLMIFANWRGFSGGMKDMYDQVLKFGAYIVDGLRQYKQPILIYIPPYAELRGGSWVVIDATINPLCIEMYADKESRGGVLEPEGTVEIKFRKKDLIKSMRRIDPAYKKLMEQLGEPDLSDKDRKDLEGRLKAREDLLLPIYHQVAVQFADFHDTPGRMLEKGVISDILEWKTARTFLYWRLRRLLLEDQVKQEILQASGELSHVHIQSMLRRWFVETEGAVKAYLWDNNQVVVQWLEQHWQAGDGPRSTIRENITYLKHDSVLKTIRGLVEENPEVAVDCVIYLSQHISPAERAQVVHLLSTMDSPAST
QUANTITY_NAME: log10 IC50 (log10 of the value in nM)
Reminder: these figures are log10 of reported IC50, in nM before transformation.

Illustrative cases are given below, each with its answer.
CC(C)OC(=O)c1ccc(NS(=O)(=O)c2ccc3nc(-c4ccc(C(=O)O)cc4)[nH]c3c2)cc1 | 2.83
Cc1cc(CO)ccc1-c1cc2ccc(S(=O)(=O)N[C@H]3CC[C@H](C(=O)N4CCN(C(=O)OC(C)(C)C)CC4)CC3)cc2[nH]1 | 1.79
CC(C)OC(=O)c1ccc(NS(=O)(=O)c2ccc3[nH]c(Nc4ccc(S(N)(=O)=O)cc4)nc3c2)cc1 | 1.61
C[C@@H](NC(=O)[C@H]1CC[C@H](NS(=O)(=O)c2cnc3c(c2)NCCS3)CC1)c1ccc(F)cc1 | 1.00
CCOC(=O)CCc1cc2ccc(S(=O)(=O)N[C@H]3CC[C@H](C(=O)N4CCCC4c4ccc(F)cc4)CC3)cc2n1C (stereo partly shown) | 2.26

Ask: Provide measured log10 IC50 value, entry: Cn1c(-c2ccccc2)cc2ccc(S(=O)(=O)N[C@H]3CC[C@H](C(=O)N4CCOC[C@@H]4C4CC4)CC3)cc21
Reply: 1.00

Ask: Provide measured log10 IC50 value, entry: C[C@@H](NC(=O)[C@H]1CC[C@H](NS(=O)(=O)c2ccc3nc(OC(C)(C)CO)ccc3c2)CC1)c1ccc(F)cc1
Reply: 1.60
